System: MCF-7 cells
Test: MCF7 Viability Assay (Breast Cancer Cell Viability Assay)
Format: cell-based
Details: Homo sapiens, MCF7, 120 h, 5 days' compound exposure, CellTiter-Glo
recordedEndpoint: IC50

* Cc1cccnc1/C(=C(\c1ccc(/C=C/C(=O)O)cc1)c1ccc(-c2cn[nH]c2)cc1)C1CCC1 | > 0.1 µM
* O=C(O)/C=C/c1ccc(/C(=C(\c2ccccc2)C2CCC2)c2cccc(-c3cn[nH]c3)c2)cc1 | > 0.1 µM
* CC/C(=C(/c1ccc(/C=C/C(=O)O)cc1)c1ccc(-c2cccnc2)cc1)c1ccccc1 | > 0.1 µM
* CC/C(=C(/c1ccc(/C=C/C(=O)O)cc1)c1ccc(-c2cncs2)cc1)c1ccc2occc2c1 | ≤ 0.1 µM
* O=C(O)/C=C/c1ccc(/C(=C(\c2ncc(C(F)(F)F)cc2Cl)C2CCC2)c2ccc(N3CCOCC3)cc2)cc1 | ≤ 0.1 µM
* O=C(O)/C=C/c1ccc(/C(=C(\c2ccccc2)C2CCC2)c2ccc(N3CCNCC3)cc2)cc1 | ≤ 0.1 µM
* Cc1cscc1/C(=C(\c1ccc(/C=C/C(=O)O)cc1)c1ccc(-c2cn[nH]c2)cc1)C1CCC1 | ≤ 0.1 µM
